system: Methicillin Resistant Staphylococcus aureus strain USA 300 (NRS384); assay: MIC, broth micro-dilution technique (CLSI); format: cell-based; conditions: Staphylococcus aureus, 22 h, read-out: MIC (μg/mL) S. aureus
Measured parameter: MIC (µg/mL)
Expressed in µg/mL, but write only the number.

Structure smiles string	Unit name	MIC
CCCCCCCCc1ccc(C(=O)N[C@@H](CCCN)C(=O)N(C)[C@@H]2C(=O)N[C@@H](C)C(=O)N[C@H](C(=O)NCB3O[C@@H]4C[C@@H]5C[C@@H](C5(C)C)[C@]4(C)O3)Cc3ccc(OCCN)c(c3)-c3cc2ccc3OCCN)cc1	µg/mL	0.25

Recorded MIC for C[C@@H]1NC(=O)[C@@H](N(C)C(=O)[C@H](CCCCN)NC(=O)c2ccc(Oc3ccc(Cl)cc3)cc2)c2ccc(OCCN)c(c2)-c2cc(ccc2OCCN)C[C@@H](C(=O)O)NC1=O , please?
2

GET /values?readout=MIC&item= CC(=O)OCC(=O)[C@H](C)NC(=O)[C@@H]1Cc2ccc(O)c(c2)-c2cc(ccc2O)[C@H](N(C)C(=O)[C@H](CCCCN)NC(=O)c2ccc(-c3ccc(Cl)cc3)cc2)C(=O)N[C@@H](C)C(=O)N1
3.2

====

Tested on: Methicillin Resistant Staphylococcus aureus strain USA 300 (NRS384)
Test: MIC, broth micro-dilution technique (CLSI)
Format: cell-based
Conditions: Staphylococcus aureus, 22 h, read-out: MIC (μg/mL) S. aureus
Method: In vitro antimicrobial activity of each compound was determined by measuring minimal inhibitor concentrations (MICs) using the broth micro-dilution technique as approved by the Clinical and Laboratory Standards Institute (CLSI) (Methods for Dilution Antimicrobial Susceptibility Tests for Bacteria that Grow Aerobically; Approved Standard—Eighth Edition. CLSI document M07-A8. Wayne, Pa.: Clinical and Laboratory Standards; 2009). […]
Threshold 3 µg/mL: MIC strictly smaller gives True, otherwise False.

Compound	Category label
CCCCCCCCCCNCCC(=O)N[C@@H](CCCCN)C(=O)N(C)[C@@H]1C(=O)N[C@@H](C)C(=O)N[C@H](C(=O)N[C@@H](C)C(C)=O)Cc2ccc(OC3O[C@H](CO)[C@@H](O)[C@H](O)[C@H]3N)c(c2)-c2cc1ccc2OC1O[C@H](CO)[C@@H](O)[C@H](O)[C@H]1N (stereo partly drawn)	False
C[C@@H]1NC(=O)[C@@H](N(C)C(=O)[C@H](CCCCN)NC(=O)c2ccc(-c3ccc(C(C)(C)C)cc3)cc2)c2ccc(OCCN)c(c2)-c2cc(ccc2OCCN)C[C@@H](C(=O)O)NC1=O	True
C[C@@H]1NC(=O)[C@@H](N(C)C(=O)[C@H](CCCCN)NC(=O)c2ccccc2-c2ccc(Cl)cc2)c2ccc(OCCN)c(c2)-c2cc(ccc2OCCN)C[C@@H](C(=O)O)NC1=O	False

For C[C@@H]1NC(=O)[C@@H](N(C)C(=O)[C@H](CCCCN)NC(=O)c2ccc(-c3ccc(Cl)cc3)cc2)c2cc(C#N)c(O)c(c2)-c2cc(ccc2O)C[C@@H](C(=O)O)NC1=O , is the recorded MIC below the cut-off of 3 µg/mL?
False

Consider the compound C[C@@H]1NC(=O)[C@@H](N(C)C(=O)[C@H](CCCCN)NC(=O)c2ccc(-c3ccc(Cl)cc3)cc2)c2ccc(O)c(c2)-c2cc(ccc2O)C[C@@H](C(=O)N[C@@H](C)C(=O)N(C)[C@@H](CC(=O)O)C(N)=O)NC1=O . Is its MIC strictly less than 3 µg/mL?
False
